# assay system: rat B1R (Rattus norvegicus)
# Construct: expressed in transfected cells; host or cells: CHO K1 cells
# Sequence (P97583 whole entry): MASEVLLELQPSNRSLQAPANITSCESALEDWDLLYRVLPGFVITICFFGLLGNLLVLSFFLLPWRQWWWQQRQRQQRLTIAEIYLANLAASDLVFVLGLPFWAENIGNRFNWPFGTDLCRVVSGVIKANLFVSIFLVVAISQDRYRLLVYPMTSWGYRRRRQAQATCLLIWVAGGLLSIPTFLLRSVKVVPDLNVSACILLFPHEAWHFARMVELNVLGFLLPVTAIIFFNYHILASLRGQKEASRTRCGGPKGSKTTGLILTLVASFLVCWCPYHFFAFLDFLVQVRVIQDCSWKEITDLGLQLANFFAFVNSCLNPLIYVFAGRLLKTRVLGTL
# assay notes: Functional investigation on the bradykinin receptor 1 (B1R), FLIPR Ca2+ assay, rB1R cells
# Assay type: cell-based
# test settings: % inhibition rat B1R at 10 μM; CHO K1 cells transfected with rat B1R; agonist Des-Arg9 bradykinin at EC80; read-out: % Inh. (rat B1R) 10 μM
# Excerpt: The agonistic or antagonistic action of substances can be quantified on the bradykinin receptor 1 (B1R) of the human and rat species with ectopically expressing cell lines (CHO K1 cells) and with the aid of a Ca^2+-sensitive dye (Fluo-4) using a fluorescent imaging plate reader (FLIPR). […] The agonistic or antagonistic action of substances can be determined on the bradykinin 1 receptor (B1R) of the human and rat species with the following assay. […]
Assignment: determine reported inhibition at 10 µM for the given compounds.
Give a bare numeral; the unit % is implied.

Query: Supply recorded inhibition at 10 µM for COc1cc(C)c(S(=O)(=O)N2CCCC[C@H]2COCC(=O)N2CCC3(CC2)CCC(c2ccccc2)(N(C)C)CC3)c(C)c1 here.
Reply: 94

Query: Supply recorded inhibition at 10 µM for COc1cc(C)c(S(=O)(=O)N(CCOCC(=O)N2CCC3(CC2)CCC(c2cccs2)(N(C)C)CC3)C2CC2)c(C)c1 here.
Reply: 97

Query: Supply recorded inhibition at 10 µM for Cc1cccc(Cl)c1S(=O)(=O)N(CCOCC(=O)N1CCC2(CC1)CCC(c1cccc(F)c1)(N1CCCC1)CC2)C1CC1 here.
Reply: 97

Query: Supply recorded inhibition at 10 µM for COc1cc(C)c(S(=O)(=O)N2CCCCC2COCC(=O)N2CCC3(CC2)CCC(c2cccs2)(N(C)C)CC3)c(C)c1 (stereo not drawn) here.
Reply: 98

Query: Supply recorded inhibition at 10 µM for COc1cc(C)c(S(=O)(=O)N2CCCC[C@H]2COCC(=O)N2CCC3(CC2)CCC(c2cccc(F)c2)(N(C)C)CC3)c(C)c1 here.
Reply: 104

Query: Supply recorded inhibition at 10 µM for CN(C)C1(c2cccs2)CCC2(CCN(C(=O)CC(NS(=O)(=O)c3ccc4ccccc4c3)c3ccccc3)CC2)CC1 (stereo not drawn) here.
Reply: 100

Query: Supply recorded inhibition at 10 µM for COc1cc(C)c(S(=O)(=O)N2CCCC[C@H]2COCC(=O)N2CCC3(CC2)CCC(c2ccccc2)(N2CC(F)(F)C2)CC3)c(C)c1 here.
Reply: 104

Query: Supply recorded inhibition at 10 µM for Cc1cccc(Cl)c1S(=O)(=O)N1CCCC[C@H]1COCC(=O)N1CCC2(CC1)CCC(c1ccccc1)(N(C)C)CC2 here.
Reply: 97

Query: Supply recorded inhibition at 10 µM for O=C(CC(NS(=O)(=O)c1ccc2ccccc2c1)c1ccccc1)N1CCC2(CC1)CCC(c1cccc(F)c1)(N1CCCC1)CC2 (stereo not drawn) here.
Reply: 96

Query: Supply recorded inhibition at 10 µM for Cc1cccc(Cl)c1S(=O)(=O)N1CCCCC1COCC(=O)N1CCC2(CC1)CCC(c1cccs1)(N(C)C)CC2 (stereo not drawn) here.
Reply: 98

Query: Supply recorded inhibition at 10 µM for COc1cc(C)c(S(=O)(=O)N2CCCCC2CCCC(=O)N2CCC3(CC2)CCC(c2ccccc2)(N(C)C)CC3)c(C)c1 (stereo not drawn) here.
Reply: 98

Query: Supply recorded inhibition at 10 µM for COc1cc(C)c(S(=O)(=O)N2CCCCC2COCC(=O)N2CCC3(CC2)CCC(c2ccccc2)(N2CCCC2)CC3)c(C)c1 (stereo not drawn) here.
Reply: 92
